All figures here come from patent US20170168078A1.

Reported kon values follow for various binders
- Study system: T1, purified recombinant human folate receptor alpha (rh-FRα) (human, UniProt P15328 25-234)
- T1 construct: One is secreted from CHO cells, with a human Ig kappa leader and a C-terminal 6x His tag replacing the GPI attachment site; The other is from Sf9 cells, with an N-terminal 6x His tag and the GPI site intact; also called FR-alpha; FOLR1
- T1 sequence (P15328 25-234 limits assumed): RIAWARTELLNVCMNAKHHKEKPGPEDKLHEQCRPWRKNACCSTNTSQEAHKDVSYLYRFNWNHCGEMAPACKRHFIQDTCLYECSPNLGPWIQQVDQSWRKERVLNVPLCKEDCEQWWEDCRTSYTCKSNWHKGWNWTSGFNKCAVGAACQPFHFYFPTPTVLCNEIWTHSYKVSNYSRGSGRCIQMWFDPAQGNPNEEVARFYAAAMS
- Procedure summary: SPR, BIACORE T100, antibody captured on anti-mouse IgG, rh-FRα 1-30 nM as analyte, single-cycle kinetics, 1:1 fit
Hi! Could you send only the number? It should be in M⁻¹ s⁻¹, unit omitted.

I'd like to know its kon. The binder in question is Monoclonal antibody 19D4.B7 (antibody, mouse IgG2a, V domains shown, It was labelled with Ru (about 13 labels per IgG) when used as the detector in the ECL assays; also called ATCC PTA-11884) VH: GAELVKPGASVKLSCTASGFNIKHPYMHWVKQRPDQGLEWIGRIDPANGNTKYDPKFQGKATITADTSSNTAYLQLSSLTSEDTAVYYCGREEVADYTMDYWGQGTSVTVSS VL: PASLAVSLGQRATISCRASESVDTYGNNFIHWYQQKPGQPPKLLIYLASNLESGVPARFSGSGSRTDFTLTIDPVEADDAATYYCQQNNGDPWTFGGGTKLEIKR
427000

Repeat with Monoclonal antibody 9F3.H9.H3.H3.B5.G2 (antibody, mouse IgG2a, V domains shown, also called ATCC PTA-11887) VH: ESGPGLVRPSQSLSLTCSVTGYSITSGYYWNWIRQFPGSRLEWMGYIKSDGSNNYNPSLKNRISITRDTSKNQFFLKLNSVTTEDTATYFCTREWKAMDYWGQGTSVTVSS VL: PAIMSASPGEKVTMTCRASSTVSYSYLHWYQQKSGASPQLWIYGTSNLASGVPARFSGSGSGTSYSLTISSVEAEDAATYYCQQYSGYPLTFGAGTKLELKR
434000

Repeat with Monoclonal antibody 26B3.F2 (antibody, mouse IgG1, V domains shown, also called MAb 26B3; ATCC PTA-11885) VH: GPELVKPGASVKISCKASDYSFTGYFMNWVMQSHGKSLEWIGRIFPYNGDTFYNQKFKGRATLTVDKSSSTAHMELRSLASEDSAVYFCARGTHYFDYWGQGTTLTVSS VL: PASLSASVGETVTITCRTSENIFSYLAWYQQKQGISPQLLVYNAKTLAEGVPSRFSGSGSGTQFSLKINSLQPEDFGSYYCQHHYAFPWTFGGGSKLEIKR
524000

Repeat with Monoclonal antibody 24F12.B1 (antibody, mouse IgG1, V domains shown, also called ATCC PTA-11886) VH: SGGGLVRPGGSLKLSCAASGFTFSSYAMSWVRQSPEKRLEWVAEIGSGGSYTYYPDTVTGRFTISRDNAKSTLYLEMSSLRSEDTAIYYCARETTAGYFDYWGQGTTLTVSS VL: TSSLSASLGDRVTISCSASQGINNFLNWYQQKPDGTVKLLIYYTSSLHSGVPSRFSGSGSGTDYSLTISNLEPEDIAIYYCQHFSKLPWTFGGGTKLEIKR
393000
